System: MS2 coat protein
assay protocol: apparent KD of MS2 coat protein; designed switch direction (-1 OFF switch, 1 ON switch): -1; higher = weaker reporter binding
run conditions: Eterna round: R95; input ligand: none
# label = Y if apparent KD of MS2 coat protein >= 40 nM else N

Determine whether measured apparent KD of MS2 coat protein meets or exceeds 40 nM for AGUAGGUCUACCUUGGUGGAUCUGCAUAAAGCAAGUGAUACAUGAGGAUCACCCAUGUCCUCAUUUGCUCGUCUUAU [JL turnoff v2 99.21] (puzzle: Sensor v3, turn-off variant 2)
N

Say whether CUCGGGAGUCAGGAUAUCGGCACAUAUCAAUCACGAGAAGGGACGACAUGAGGAUCACCCAUGUGGGAAAAGAA [Bivetilaza] (puzzle: Exclusion 6) shows apparent KD of MS2 coat protein of 40 nM or more.
Y

Exam item: decide whether the reported apparent KD of MS2 coat protein for UUUUUCAGGCCAGAUCCUCACAUGAGGAUCACCCAUGUGCUCGUCUGUUUUCGCUCUAGCUUUUUUUUGGUAGUGCU [Level Boss var2-16] (puzzle: Sensor v3, turn-off variant 1) is at least 40 nM.
Y

Has AAUAUGUGAGGAUAUGCUUUAAGAAGAAUGAGUUUGAAAUAACAUGAGGAUCACCCAUGUAGAAGGCGCUAAAA [Lollin - Beta 1] (puzzle: Exclusion 2) a recorded apparent KD of MS2 coat protein greater than or equal to 40 nM?
N

Please tell me: is the sequence AUAUUAAUAUAGGAUAUCGAAAUUAUUAAUUAUCGAGAAGGAUAAACAUGAGGAUCACCCAUGUGGUAUCAUGG [Mat - Exclusion 6 - JL Mod - D41] (puzzle: Exclusion 6) at or over 40 nM in terms of apparent KD of MS2 coat protein?
Y

Identify whether the reported apparent KD of MS2 coat protein of the following sequence is 40 nM or greater: UAAUAAAGUGUGAGGAUAUGCUGGUCCAUAGAUCAGCAGAAGGCACAUGAGGAUCACCCAUGUAAUAUAUAAAU [Mat - Exclusion 4 - JL Mod - D57] (puzzle: Brourd's mod of Exclusion 4)
N

Does the sequence AGAAAGGCCCAUGGCCGCAAGCUUUUUGCUUGUCUUACCACAUGAGGAUCACCCAUGUGACAUGGGCUCCUGAUAAU [Atveuser] (puzzle: Sensor v3, turn-off variant 2) have recorded apparent KD of MS2 coat protein that is 40 nM or more?
N

Dear colleague, could you confirm whether CUGGUCCGAGGAUAUAUAUUGUGAUACAUGAGGAUCACCCAUGUAAUAAUAUGGAUAUAAAUAGAAGGCGGACUAG [Mat - Exclusion 5 - JL mod - D49] (puzzle: Exclusion 5) has apparent KD of MS2 coat protein at or above 40 nM?
N

Does the sequence AAUAAGUGAGGAUAUACGUCUGGACCCGGGAGGGAAAUAAAACAUGAGGAUCACCCAUGUAGAAGGCACAAUAA [Excls2-III] (puzzle: Exclusion 2) have recorded apparent KD of MS2 coat protein that is 40 nM or more?
N

Is the recorded value of apparent KD of MS2 coat protein equal to or greater than 40 nM for this sequence? UAUUAGUGAGGAUAUGGUAUAGAUAAGAUGAUGAAAGAACUCCAGAAGGCACAUGAGGAUCACCCAUGUAGUAG [JL-ex4-2.08 Jieux mod] (puzzle: Exclusion 4)
N

Quick check, apparent KD of MS2 coat protein >= 40 nM? GCAGUGCGAGGAUAUACAUGAGGAUCACCCAUGUGAGAGAAAUAAGUGAGGAAGAAAAGUAGAAGGCGCGUUGG [Mat - Exclusion 3 - Mod of Salish D69] (puzzle: Exclusion 3)
Y

// inclusive: apparent KD of MS2 coat protein at least 40 nM? input: ACAACAAGCUUUUUGUUCGUAGAACAUGAUGCUCUAGUCACAUGAGGAUCACCCAUGUCAACUAGAUAGAUAGUUGA [JR_SV3TOV2_Sub062] (puzzle: Sensor v3, turn-off variant 2)
Y

Please check the record CUCCUCAUGGCGCCUAAACACAUGAGGAUCACCCAUGUACAGGCUUUCUGCCGUCUUAUAAUAAAACCGAGGAUGCG [Soedlexe] (puzzle: Sensor v3, turn-off variant 1) and state if its apparent KD of MS2 coat protein is at or above 40 nM.
Y

Textbook exercise: given the entry AAACUCCUGACAACCAGGAACAUGAGGAUCACCCAUGUGGCGUGACUCAUACGGGCUUUUUGUUCGUUUUAUUCACG [Aleatxe] (puzzle: Sensor v3, turn-off variant 1) , state whether its apparent KD of MS2 coat protein is greater than or equal to 40 nM.
Y

State whether the measured apparent KD of MS2 coat protein reaches 40 nM, counting equality as reaching it, for AGUAACUAUCACGAAAGUGAUAGUUACACAAGCAGUGACACAUGAGGAUCACCCAUGUCCUCAUUUGCUCGUCUUAU [Sensor 3 - 29] (puzzle: Sensor v3, turn-off variant 2)
Y

Say whether AAAAAACAAGGAUAUACAAAAAAAAAAUGUGUUAAAUUUUCACAUGAGGAUCACCCAUGUAGAAGGUGUAAAAA [JR_Exclusion2_Sub005] (puzzle: Exclusion 2) shows apparent KD of MS2 coat protein of 40 nM or more.
Y

Could you tell me if the measured apparent KD of MS2 coat protein of ACUUGCUUUUUGCUCGUCUUAUUUUUGUUGACGUUCUAUACAUGAGGAUCACCCAUGUUUUGUUCCUUGUGCUGGUA [JR_SV3TOV2_Sub073] (puzzle: Sensor v3, turn-off variant 2) reaches 40 nM or more?
Y

* * *

System: MS2 coat protein
assay protocol: apparent KD of MS2 coat protein; designed switch direction (-1 OFF switch, 1 ON switch): -1; higher = weaker reporter binding
run conditions: input ligand: none
Give Criterion met when the value for apparent KD of MS2 coat protein is at least 80 nM. Give Criterion not met when it is less.

Does the sequence CUUGUUUAUGUAGGAUAUGCCUGGCGUGCCUUUGCAGAAGGACAUGAGGAUCACCCAUGUAACAUGAGGCUCACCCAUGUCGCU [salish99_ExNG1_r04_106] (Eterna round: R96, puzzle: Exclusion NG 1) have recorded apparent KD of MS2 coat protein that is 80 nM or more?
Criterion met

Is reported apparent KD of MS2 coat protein greater than or equal to 80 nM here: AGCCACAGAGGAUAUACAUACAUCCAGUAGUUGAGAAGACUACAUGAGGAUCACCCAUGUAGAAGGCUGUGGCA [Omei Ex2 BD B3] (Eterna round: R97, puzzle: Exclusion 2)
Criterion met

Please check the record ACAUGAGGAUCACCCAUGUUUGGCUGGUUCUCUCCGGCUGUCGAGGAUAUAGUCCGGUAUCCGCGCUAGAAGGUGAGGGCUGGC [Aenatbe mod 6] (Eterna round: R96, puzzle: Exclusion NG 3) and state if its apparent KD of MS2 coat protein is at or above 80 nM.
Criterion not met

Quick check: does UUGUUAUGUGUAGGAUAUGCAUAUUAUUAUUAUGCAGAAGGACAUGAGGAUCACCCAUGUAUAUUAUUAUUAUAUGUUAUAUAU [Title] (Eterna round: R96, puzzle: Exclusion NG 1) have apparent KD of MS2 coat protein greater than or equal to 80 nM?
Criterion not met

State whether the measured apparent KD of MS2 coat protein reaches 80 nM, counting equality as reaching it, for ACUUAUAGAGGAUAUACAGUUUAUUACAUGAGGAUCACCCAUGUUCUUCAAUGUCCUAAAGUAGAAGGCUAAGGAA [Mat - Exclusion 5 - Eli Mod - D12] (Eterna round: R97, puzzle: Exclusion 5)
Criterion not met

Is it the case that UCGGGCUCAGAGGAUAUGGGCGAAAAUAUAAAACCAGAAGGCUGAACUUGAGGAUCACCCAAGUACGGGCAAAA [Inxeridi] (Eterna round: R97, puzzle: Exclusion 6) has apparent KD of MS2 coat protein reaching or exceeding 80 nM?
Criterion not met

Textbook exercise: given the entry CCAAGAAUAGGAUAUACACCAUGUCAGCUUAUAUACAACGCACAUGAGGAUCACCCAUGUAGAAGGGUUCUCUC [Exclusion-2-#2] (Eterna round: R97, puzzle: Exclusion 2) , state whether its apparent KD of MS2 coat protein is greater than or equal to 80 nM.
Criterion met

Would you say GCAACGCUGAAAGGAUAUGUUGACCGAGAGACAACAGAAGGUUCCGCACAUGAGGAUCACCCAUGUGAUCGUAAAAGAGCAAGC [Eternabot solution 18] (Eterna round: R96, puzzle: Exclusion NG 1) shows apparent KD of MS2 coat protein at minimum 80 nM?
Criterion not met

Can GGAUCGAGUGUGAGGAUAUACCUAUGGAAACAUAGGUAGAAGGCACAUGAGGAUCACCCAUGUUCCUACGGUCC [Mat - Exclusion 4 - Eli Mod - D8] (Eterna round: R97, puzzle: Brourd's mod of Exclusion 4) be said to have apparent KD of MS2 coat protein at or above 80 nM?
Criterion not met
